Tested on: SK-MEL-5 melanoma
Test: NCI tumour cell line growth inhibition, 48 h
measured endpoint: TGI

CCOC(=O)C1=NC(c2ccccc2)(c2ccccc2)OC1=C(Cl)Cl    > 100 µM
COc1ccc(NCc2cc(OC)cc(OC)c2)cc1    > 100 µM
N#CC(C#N)=c1ccc(=C2N3CCCC3CN2C23CC4CC(CC(C4)C2)C3)cc1 (stereo not drawn)    > 100 µM

====

The reader will find reported log10 TGI values listed item by item below.
System: SNB-75 CNS
Assay: NCI tumour cell line growth inhibition, 48 h
measured endpoint: log10 TGI (log10 of the value in µM)

COc1ccc2c(c1)SC1=NNC(Cl)C(=O)N12 (stereo not drawn)    1.92
C=CC(=O)N1CC2(CCC(n3nc(-c4ccc(Oc5ccccc5)cc4)c4c(N)ncnc43)CC2)C1    -0.76
Cc1c(C)c(S(=O)(=O)N(CCCCCCN)OCCCN)c(C)c2c1OC(C)(C)CC2    1.04
Clc1ccc(-c2ccc(CNCC3CCNCC3)o2)c(-c2ccccc2)c1    0.45
O=C(/C=C/c1cccc2ccccc12)c1ccccc1    1.49
COc1cc(C(=O)/C=C/c2c(C)n([O-])c3ccc(C(F)(F)F)cc3[n+]2=O)cc(OC)c1OC    1.39
C#Cc1nc(N)c2ncn(C3OC(COS(N)(=O)=O)C(O)C3O)c2n1 (stereo not drawn)    -0.46

====

Tested on: SK-MEL-2 melanoma
Assay: NCI tumour cell line growth inhibition, 48 h
The reader will find reported TGI values listed item by item below.
measured endpoint: TGI

CC(C)C(O)(C(=O)OCN1C(=O)C2C3C=CC(C2C1=O)C1C2C(=O)N(COC(=O)C(O)(C(C)C)C(C)O)C(=O)C2C31)C(C)O (stereo not drawn)    > 100 µM
COc1ccc(C(=O)Cc2ccc(Cl)cc2)cc1OC    > 100 µM
O=C(N/N=C\c1c(O)ccc2ccccc12)c1ccncc1    > 9.41 µM

====

Test system: RPMI-8226 leukemia
Assay: NCI tumour cell line growth inhibition, 48 h
measured endpoint: TGI

NC(=Nc1ccc(Cl)cc1)c1ccccc1N    > 100 µM
Cc1cc2c(cc1C)[n+]([O-])c(NCCCN(C)C)c(C#N)[n+]2[O-]    > 100 µM
COC12COC(=O)C1C(c1ccc3c(c1)OCO3)c1cc3c(cc1O2)OCO3 (stereo not drawn)    > 87.9 µM

====

Test system: RPMI-8226 leukemia
Assay: NCI tumour cell line growth inhibition, 48 h
Where a SMILES comes first, the peptide text is derived from it. [ ]: non-standard residue; d: D form. The star is where a group is joined. NMeF = CN[CH](Cc1ccccc1)C(=O)O; NMeV = CN[CH](C(=O)O)C(C)C; Boc = CC(C)(C)OC(=O)*
measured endpoint: TGI

COC(=O)C1=C(OC(=O)/C(=C/c2ccccc2)c2ccccc2)C(C(=O)OC)[C@@]2(O)[C@@H](C(=O)OC)[C@H](C)C[C@@H]1[C@@H]2C(=O)OC (stereo not given in full)    > 100 µM
Cc1cn(C2CC(Br)C(COC(c3ccccc3)(c3ccccc3)c3ccccc3)O2)c(=O)[nH]c1=O (stereo not given)    20.6 µM
C=C1C(=O)c2sccc2C(c2ccc(OC)c(OC)c2)C1COC(C)=O (stereo not given)    0.0366 µM
CCOC(=O)C(CS)NC(=O)CCCCCCCC(=O)O (stereo not given)    > 100 µM
COc1cccc2c(Nc3ccc(C(=O)O)cc3)cc(-c3ccccc3)nc12    > 100 µM
Clc1ccc(-c2ccc(CNCC3CCNCC3)o2)c(-c2ccccc2)c1    3.19 µM
Cc1nc(Nc2ccc(Cl)cc2Cl)sc1C(=O)Nc1ccccc1    > 100 µM
COc1ccc(C2c3c(n(C)c(=O)n(C)c3=O)OC(N(C)C)(N(C)C)C2(F)F)cc1 (stereo not given)    > 100 µM
CCCCCC(=O)n1[nH]c(=O)n(-c2ccc(OC)cc2)c1=O    > 100 µM
CC(C)C(NC(=O)OC(C)(C)C)C(=O)N(C)C(Cc1ccccc1)C(=O)N(C)C(C(=O)N(C)C(C(=O)O)C(C)C)C(C)C (stereo not given) (Boc-V[NMeF][NMeV][NMeV]-OH; configuration not given here)    > 100 µM
COc1ccc(/C=C2/SC(c3ccccc3)N(NC(=O)CCCCCCCCC(=O)NN3C(=O)/C(=C\c4ccc(OC)c(OC)c4)SC3c3ccccc3)C2=O)cc1OC (stereo not given)    72.6 µM
COCn1cnc2c(=O)n(-c3ccc(C)cc3)c(=S)n(-c3ccc(C)cc3)c21    > 100 µM
COC(=O)C(C(=O)C(=O)Nc1nc(=S)[nH][nH]1)c1csc(N)n1 (stereo not given)    > 100 µM
CCc1cccc(CC)c1NC(=O)C(=O)Cc1nc2ccccc2o1    > 100 µM
COc1cc(/C=C2/SC(c3ccccc3)N(c3cc(Cl)ccc3Cl)C2=O)cc(OC)c1OC (stereo not given)    > 100 µM
